Data origin, for the record: patent US8415379B2

- targetUnderTest: GABA A α5 (human receptors of composition α5β3γ2) (Homo sapiens, UniProt P18507+P31644)
- Construct: membrane homogenates used
- measurementDescription: [3H]flumazenil competition binding assay, human GABA A α5β3γ2 receptors in HEK293 cells
- testContext: displacement of 0.5 nM [3H]flumazenil, HEK293 membranes, 1 hour at 4° C., means of two determinations, read-out: hKi GABA A α5
pKi: −log10 of the molar value.
Note to self: values exactly at 8 are yes. So pKi at or above 8 is yes, below is no.

                                    compound                           targetundertest  classname
 0  CC(C)NC(=O)c1ccc(OCc2c(-c3ccc(F)cc3)noc2CO)cn1  GABA A α5 (human receptors of composition α5β3γ2) (Homo sapiens, UniProt P18507+P31644)         no
 1  Cc1onc(-c2ccccc2)c1COc1ccc(C(=O)NN(C)C)nc1  GABA A α5 (human receptors of composition α5β3γ2) (Homo sapiens, UniProt P18507+P31644)         no
 2  O=C(NC1CCOCC1)c1ccc(OCc2c(-c3ccc(F)cc3)noc2CO)cn1  GABA A α5 (human receptors of composition α5β3γ2) (Homo sapiens, UniProt P18507+P31644)         no
 3  Cc1onc(-c2ccccn2)c1COc1ccc(C(=O)NC(C)(C)CO)nc1  GABA A α5 (human receptors of composition α5β3γ2) (Homo sapiens, UniProt P18507+P31644)         no
 4   CCNC(=O)c1ccc(OCc2c(-c3ccccn3)noc2C)cn1  GABA A α5 (human receptors of composition α5β3γ2) (Homo sapiens, UniProt P18507+P31644)        yes
 5  O=C(NN1CCCC1)c1ccc(OCc2c(-c3ccc(F)cc3)noc2CO)cn1  GABA A α5 (human receptors of composition α5β3γ2) (Homo sapiens, UniProt P18507+P31644)        yes
 6  Cc1onc(-c2ccccn2)c1COc1ccc(C(=O)NC2CC2)nc1  GABA A α5 (human receptors of composition α5β3γ2) (Homo sapiens, UniProt P18507+P31644)        yes
 7  CC(NC(=O)c1ccc(OCc2c(-c3ccc(F)cc3)noc2CO)cn1)C(F)(F)F (stereo not drawn)  GABA A α5 (human receptors of composition α5β3γ2) (Homo sapiens, UniProt P18507+P31644)         no
 8  Cc1onc(-c2ccc(F)cn2)c1COc1ccc(C(=O)NC(C)C)nc1  GABA A α5 (human receptors of composition α5β3γ2) (Homo sapiens, UniProt P18507+P31644)        yes
 9  Cc1onc(-c2ccc(F)cn2)c1COc1ccc(C(=O)NCC(F)(F)F)nc1  GABA A α5 (human receptors of composition α5β3γ2) (Homo sapiens, UniProt P18507+P31644)        yes
10  Cc1onc(-c2ccccn2)c1COc1ccc(C(=O)NN2CCOCC2)nc1  GABA A α5 (human receptors of composition α5β3γ2) (Homo sapiens, UniProt P18507+P31644)        yes
11  Cc1onc(-c2ccccn2)c1COc1ccc(C(=O)N2CCS(=O)(=O)CC2)nc1  GABA A α5 (human receptors of composition α5β3γ2) (Homo sapiens, UniProt P18507+P31644)         no
12  Cc1onc(-c2ccccn2)c1COc1ccc(C(=O)Nc2cnn(C)c2)nc1  GABA A α5 (human receptors of composition α5β3γ2) (Homo sapiens, UniProt P18507+P31644)        yes
13  Cc1onc(-c2ccc(F)cn2)c1COc1ccc(C(=O)N2CCS(=O)(=O)CC2)nc1  GABA A α5 (human receptors of composition α5β3γ2) (Homo sapiens, UniProt P18507+P31644)         no
14  O=C(NC1CC1)c1ccc(OCc2c(-c3ccc(F)cc3)noc2CO)cn1  GABA A α5 (human receptors of composition α5β3γ2) (Homo sapiens, UniProt P18507+P31644)         no
15  CC[C@@H](CO)NC(=O)c1ccc(OCc2c(-c3ccccn3)noc2C)cn1  GABA A α5 (human receptors of composition α5β3γ2) (Homo sapiens, UniProt P18507+P31644)        yes
16  Cc1onc(-c2ccc(F)cn2)c1COc1ccc(C(=O)NC(C)(C)CO)nc1  GABA A α5 (human receptors of composition α5β3γ2) (Homo sapiens, UniProt P18507+P31644)         no
17  Cc1onc(-c2ccccn2)c1COc1ccc(C(=O)NC2CCOCC2)nc1  GABA A α5 (human receptors of composition α5β3γ2) (Homo sapiens, UniProt P18507+P31644)        yes
18  CC(C)(C)NC(=O)c1ccc(OCc2c(-c3ccc(F)cc3)noc2CO)cn1  GABA A α5 (human receptors of composition α5β3γ2) (Homo sapiens, UniProt P18507+P31644)         no
19  Cc1onc(-c2ccccn2)c1COc1ccc(C(=O)NC(C)C)nc1  GABA A α5 (human receptors of composition α5β3γ2) (Homo sapiens, UniProt P18507+P31644)        yes
20  Cc1onc(-c2ccccn2)c1COc1ccc(C(=O)NCC(F)(F)F)nc1  GABA A α5 (human receptors of composition α5β3γ2) (Homo sapiens, UniProt P18507+P31644)        yes
